biological target: Apoptotic protease-activating factor 1 (Homo sapiens); test: blockers of Apaf-1-driven caspase-3 activation – biochemical, DEVD-Rh110 fluorescence, uHTS, primary screen (AID 489030); settings: reconstituted apoptosome caspase-3 activity, at 20 µM
Hit rate of the full screen: of about 330,000 compounds, about 2,400 (0.73%) were called active. Rule for the calls: active = inhibition of at least 40% at 20 µM; inactive = the rest. This is one part of a sample in which actives are shown more often than they occur.
Write down the outcome that applies. Available outcomes: active, inactive

What did this assay record as the result for Cc1ccc(S(=O)(=O)N2CCN(C(=O)Cn3c(=O)cnc4ccccc43)CC2)c(C)c1 ?
inactive

What classification did CC[C@@H](C)[C@@H]1CN([C@@H](C)CN2CCC[C@H]2CN2C(N)=NC[C@H]2C(C)C)C(=N)N1CCc1ccc(Cl)c(Cl)c1 end up with in this test?
inactive

What did this assay record as the result for COc1cc(OC)cc(-c2c(-c3cccs3)c3cc(-c4ccc(OC)cc4F)ccc3n2C)c1 ?
inactive

Outcome? CCCCN1C(N)=NC[C@@H]1Cc1ccccc1
inactive

Entry CC(=O)N(C1=C(Cl)C(=O)c2ccccc2C1=O)c1ccc(C(=O)O)cc1 : call = ?
active

Could you kindly confirm the outcome this assay logged for Cc1ccc(S(=O)(=O)N2CCN(C(=O)c3ccccc3-c3nc4ccccc4s3)CC2)c(C)c1 ?
active

Could you check what this test reported for C[C@@H](CN1CCC[C@H]1CN1C(N)=NC[C@@H]1Cc1ccccc1)N1C[C@@H](Cc2ccccc2)N(CCCC2CCCC2)C1=N ?
active

For this compound, state the assay outcome: CCOc1cc(NC(=S)NCCCN(C)C)c(OCC)cc1NC(=O)C1CC1
inactive

Further cases:
I'd appreciate the recorded outcome for NS(=O)(=O)c1ccc(N2C(=O)C3C4CC(C(Br)C4Br)C3C2=O)cc1 (centres undefined) from this test.
inactive

* * *

target: Apoptotic protease-activating factor 1 (Homo sapiens); assay: blockers of Apaf-1-driven caspase-3 activation – biochemical, DEVD-Rh110 fluorescence, uHTS, primary screen (AID 489030); conditions: reconstituted apoptosome caspase-3 activity, at 20 µM
Hit rate of the full screen: of about 330,000 compounds, about 2,400 (0.73%) were called active. Rule for the calls: active = inhibition of at least 40% at 20 µM; inactive = the rest. The entries come from a sample that favours actives as a whole.
Outcome field: choose from active, inactive

Dear colleague, could you share the recorded outcome for COc1ccc(C2C(C#N)=C(N)Oc3cc(N)ccc32)cc1OC (centres undefined) when you have a moment?
inactive

More entries:
What was the test verdict on CCOC(=O)C1Sc2[nH]c(=O)sc2C(c2ccc(Cl)cc2)C1C(=O)OCC (centres undefined) ?
inactive

For CCOC(=O)Nc1ccc2c(c1)N(C(=O)CN1CCN3CCCC3C1)c1ccccc1CC2 (centres undefined) , what call appears in the results of this test?
inactive

Entry CC1=C(C(=O)OCc2ccccc2)C(c2ccc(C(F)(F)F)cc2)NC(=O)N1CCCCCC(=O)O (centres undefined) : call = ?
inactive

In this assay, the call recorded for CCCCNC(=O)C(C)N(CCN(C)C)C(=O)CCCN1C(=O)NC(c2ccc(Cl)cc2)C(C(=O)OCc2ccccc2)=C1C (centres undefined) was what?
active

What outcome does the record of this test show for COC(=O)CCCCCN1C(=O)NC(c2ccc(-c3ccccc3)cc2)C(C(=O)OCc2ccccc2)=C1C (centres undefined) ?
inactive

What did this assay record as the result for CC(=O)c1c(C)[nH]c(C(=O)COC(=O)CCOc2ccc(C)cc2)c1C ?
inactive

What did this assay record as the result for CCN1C(=O)N[C@@H](c2ccccc2)C(C(=O)OC)=C1C ?
inactive

Recorded test outcome, item COc1ccccc1C1C(C#N)=C(N)Oc2c1c(-c1ccccc1)nn2-c1ccccc1 (centres undefined)
active
